Here the recorded koff is given for each entry.
- systemName: MERS RBD-hFc (MERS-CoV (isolate EMC/2012))
- protocolDetails: SPR Biacore, captured mAb, 37 C

- binder: "H2bM15292N (antibody, V domains shown) VH: QVQLVQSGAEVKKPGSSVKVSCKASGGTFNNYAISWVRQAPGQGLEWMGGIIPFFGTTNYAQKFQDRVTITSDDSTITAYMELSRLRSEDTAVYYCARDEPRRDGYNYYHYYYMDVWGQGTTVTVSS VL: DIQMTQSPSSLSASVGDRVTITCRASQSINSYLNWYQQKPGKAPNLLIYAASSLQSGVPSRFSGSGSGTDFTLTISSLHPEDFATYYCQQSYSTPPITFGQGTRLEIK"
  measureUnit: "s⁻¹"
  koff: 0.000524
- binder: "H1H15188P (antibody, V domains shown) VH: QVQLVQSGAEVKKPGSSVKVSCKASGGSFSVYAISWVRQAPGQGLEWMGGIIPIFGTANYAQKFQDRFTITTDESTSTAYMELSSLRSEDTAMYYCAREGDIVVLPAGKGGMDVWGQGTTVTVSS VL: DIVMTQSPLSLPVTPGEPASISCRSSQSLLHGNGYNYLDWYLQKPGQSPQLLIYLVSHRASGVPDRFSGSGSGTDFTLKISRVEAEDVGVYYCMQALQSPWTFGQGTKVEIK"
  measureUnit: "s⁻¹"
  koff: 0.000265
- binder: "H1M15289N (antibody, V domains shown) VH: QVQLQESGPGLVKPSETLSLTCTVSGGSISSYYWSWIRQPPGKGLEWIGYIYYSGSANYNPSLKSRVTISVDTSKNQFSLKLSSVTAADTAVYYCVRDRDLLLDHWGQGTLVTVSS VL: EIVMTQSPATLSVSPGKRATLSCRASQSVSSNLAWYQQKPGQAPRLLIYGASTRTTGFPARFSGSGSGTDFTLTISSLQSEDFAVYYCQQYNNWPYTFGQGTMLEIK"
  measureUnit: "s⁻¹"
  koff: 0.000126
- binder: "H2aM15270N (antibody, V domains shown) VH: EVQLLESGGGLEQPGGSLRLSCAASGFTFSSYAMIWVRQAPGKGLEWVSTISGSGVNTYYADSVKGRFTISRDNSKNTLHLQMNSLRAEDTAVYHCAKEGLDCANGVCYNYYGMDVWGQGTTVTVSS VL: DIQMTQSPSSLSASVGDRVTITCRASQSINSFLNWYHQKPGKAPKFLIYSASNLQSGVPSRFSGSGSGTDFTLTISSLQPEDFSTYYCQQSYSIPLTFGGGTKVEIK"
  measureUnit: "s⁻¹"
  koff: 0.00114
- binder: "H2aM15279N (antibody, V domains shown) VH: EVQLLESGGGLVQTGGSLRLSCAASGFTFSNYAMSWVRQAPGKGLEWVSAISDRGGSIYYADSVKGRFTISRDNSKNTKYLQMDSLRAEDTAVYYCAQDRGFGVFDYWGQGTLVTVSS VL: DIQMTQSPSSLSASVGDRVTITCQASQDIGNYLNWFQQRPGKAPNLLIYGASNLETGVPSRFSGGGSGTDFTFTISSLQPEDIATYFCQQYDNLPFTFGPGTKVEIK"
  measureUnit: "s⁻¹"
  koff: 0.000445
- binder: "H2aM15287N (antibody, V domains shown) VH: QLQLQESGPGLVKPSETLSLTCTVSGGSISSGNYYWGWIRQPPGKGLEWFGTIYYSGSTYYNPSLKSRVTISVDTSKNQFSLKLSSVTAADTAVYYCARRAAVGHFDYWGQGTLVTVSS VL: DIQMTQSPSTLSASVGDRVTITCRASQSISTWLAWYQQKPGKAPKLLIYEASSLESGVPSRFSGSGFGTEFTLTISRLQPDDFATYFCQQYNTYWTFGQGTKVEIK"
  measureUnit: "s⁻¹"
  koff: 0.00189
- binder: "H1H15208P (antibody, V domains shown) VH: EVQLVESGGDLVQPGGSLRLSCTASGFTFSNYEMNWVRQAPEKGLDWVSFISSSGGAIYYADSVKGRFTISRDNAKNSLYLQMNSLRAEDSAIYFCARSDSGGNSRYWGQGTLVTVSS VL: DIQMTQSPSSVSASVGDRVTVTCRASQDISNWLVWYQQKPGKAPKFLIYAASSLQSGVPSRFSGSGSGTDFTLTISSLQPEDFATYYCQQANSFPPTFGGGTKVEIK"
  measureUnit: "s⁻¹"
  koff: 0.000531
- binder: "H2aM15278N (antibody, V domains shown) VH: QVQLVQSGAEVKKPGASVKVSCKASGYTFTSHGISWVRQAPGQGFEWMGWIGTYNSNTDYAQNFQGRVTMTTDTSTSTAYMELRNLRSDDTAVYYCARERGPYYGMDVWGQGTTVTVSS VL: EIVLAQSPGTLSLSPGERATLSCRASQSVNSNYLAWYQQKPGQAPRLLIYGASSRATGIPDRFSGSGSGTDFTLTISRLEPEDFAVYYCQQYGNSLTFGPGTKVDFK"
  measureUnit: "s⁻¹"
  koff: 0.00113
